Catalogue of sequences with associated Binding of serum London to looped/cyclic peptides of protein N of SARS-CoV Urbani
- System: antibodies in sera from SARS patients (sera 1a, 1b, 2, 6, 37, 62, London, SARS-yellow, SARS-green)
- Type: binding, human
- Design: unit not given here
Provide a numeric answer; units are not to be included.

Residue String: RSSSRSRGNSRNSTP
Recorded Number: 0.3
//
Residue String: QQQQGQTVTKKSAAE
Recorded Number: 0.2

Request: Find the recorded Binding of serum London to looped/cyclic peptides of protein N of SARS-CoV Urbani belonging to VSGKGQQQQGQTVTK and report it.
Result: 0.5

Request: Find the recorded Binding of serum London to looped/cyclic peptides of protein N of SARS-CoV Urbani belonging to FFGMSRIGMEVTPSG and report it.
Result: 0.3

Request: Find the recorded Binding of serum London to looped/cyclic peptides of protein N of SARS-CoV Urbani belonging to WFTALTQHGKEELRF and report it.
Result: 0.4

Request: Find the recorded Binding of serum London to looped/cyclic peptides of protein N of SARS-CoV Urbani belonging to SGPDDQIGYYRRATR and report it.
Result: 0.5

Request: Find the recorded Binding of serum London to looped/cyclic peptides of protein N of SARS-CoV Urbani belonging to EAQPLPQRQKKQPTV and report it.
Result: 0.3

Request: Find the recorded Binding of serum London to looped/cyclic peptides of protein N of SARS-CoV Urbani belonging to GMEVTPSGTWLTYHG and report it.
Result: 0.5

Request: Find the recorded Binding of serum London to looped/cyclic peptides of protein N of SARS-CoV Urbani belonging to WLTYHGAIKLDDKDP and report it.
Result: 0.3

Request: Find the recorded Binding of serum London to looped/cyclic peptides of protein N of SARS-CoV Urbani belonging to TFPPTEPKKDKKKKT and report it.
Result: 0.3

Request: Find the recorded Binding of serum London to looped/cyclic peptides of protein N of SARS-CoV Urbani belonging to PNNTASWFTALTQHG and report it.
Result: 0.3
